system: P388 leukemia ip, CD2F1 mice, survival T/C; experiment: NCI In Vivo Anticancer Drug Screen. Data for tumor model P388 Leukemia (intraperitoneal) in CD2F1 (CDF1) mice; conditions: endpoint: median survival time; dose: 12.5 mg/kg/injection; schedule: Q01DX009 (ip); vehicle: saline with Tween-80; higher = longer survival
Inconclusive results and toxic doses are left out.
metric-name: T/C

>  <compound>
O=C(c1ccccc1)N1OC2C=CC1C2 (configuration not stated)

>  <T/C>
100 % of control

$$$$
>  <compound>
O=C(Nc1cccnc1)c1ccccc1

>  <T/C>
100 % of control

$$$$
>  <compound>
CCCCC(=O)NN

>  <T/C>
96 % of control

$$$$
>  <compound>
CC(=O)c1cc(-c2ccccn2)c(=O)n2ccccc12

>  <T/C>
105 % of control

$$$$
>  <compound>
N=C(N)c1ccc(C#Cc2ccc(C(=N)N)cc2)cc1

>  <T/C>
95 % of control

$$$$
>  <compound>
C=C(C)C1=CC(=O)C(C)(C)O1

>  <T/C>
106 % of control

$$$$

Next item in the queue.
Name the value of T/C reported for O=C(CC(C(=O)c1ccccc1)N1CC1)c1ccccc1 (configuration not stated) when tested on P388 leukemia ip, CD2F1 mice, survival T/C.
100 % of control

----------
test system: P388 leukemia ip, CD2F1 mice, survival T/C; assay: NCI In Vivo Anticancer Drug Screen. Data for tumor model P388 Leukemia (intraperitoneal) in CD2F1 (CDF1) mice; conditions: endpoint: median survival time; dose: 200.0 mg/kg/injection; schedule: Q01DX005 (ip); vehicle: Klucel (hydroxypropylcellulose) (HPC); higher = longer survival
Toxic doses and inconclusive results are not listed.
T/C values for the compounds below.

Known T/C results, listed for orientation:
>  <compound>
Cc1ccc(NC(=S)NNC(=S)NNc2ccccc2)cc1C

>  <test-target>
P388 leukemia ip, CD2F1 mice, survival T/C

>  <T/C>
101 % of control

$$$$
>  <compound>
CCOc1ccc(C(C)c2cc3c(cc2OCC)OCO3)c(C)c1 (stereo unspecified)

>  <test-target>
P388 leukemia ip, CD2F1 mice, survival T/C

>  <T/C>
112 % of control

$$$$
>  <compound>
CC1CCCC2=C1C(O)c1cccc(N)c1C2O (stereo unspecified)

>  <test-target>
P388 leukemia ip, CD2F1 mice, survival T/C

>  <T/C>
88 % of control

$$$$
>  <compound>
CCOC(=O)/C=C1\COc2nc(N)[nH]c(=O)c2N1

>  <test-target>
P388 leukemia ip, CD2F1 mice, survival T/C

>  <T/C>
91 % of control

$$$$
>  <compound>
CNC(=S)N/N=C(C)/C=C/c1ccccc1

>  <test-target>
P388 leukemia ip, CD2F1 mice, survival T/C

>  <T/C>
101 % of control

$$$$

Please report the measured T/C for C=Cc1cc(OC)c2c(c1)c(=O)oc1c2cc(OC)c2c(O)ccc(C3OC(C(C)O)C(O)C3O)c21 (stereo unspecified)
157 % of control

Recall and state the measured T/C for COc1ccc(Cc2cc3c(cc2OCC(=O)Nc2nccs2)OCO3)cc1 .
97 % of control

Return reported T/C. Input compound: Cc1cc(N/N=C/c2ccc([N+](=O)[O-])o2)c2cc3c(cc2n1)OCO3
96 % of control

Supply T/C value. Item: CC(=O)Oc1cccn2c(C(=O)C(=O)c3ccc4c(OC(C)=O)cccn34)ccc12
94 % of control

Give me measured T/C, please, for this compound: NC(=O)C(=O)c1c(-c2ccccc2)c(-c2ccccc2)c2n1CCC2
93 % of control

Item CC(=O)OCC1OC(N(O)Cc2ccccc2)C(OC(C)=O)C(OC(C)=O)C1OC(C)=O (stereo unspecified) : provide T/C
86 % of control

----------
Tested on: P388 leukemia ip, CD2F1 mice, survival T/C
Experiment: NCI In Vivo Anticancer Drug Screen. Data for tumor model P388 Leukemia (intraperitoneal) in CD2F1 (CDF1) mice
Settings: endpoint: median survival time; dose: 400.0 mg/kg/injection; schedule: Q01DX009 (ip); vehicle: saline; higher = longer survival
Description: The antitumor activity of compounds was measured in mice bearing transplantable tumors. Survival or tumor size were measured and the results are expressed as the measurement made in the treated group (T) divided by the measurement made in the vehicle treated control group (C). The tumor model used in this assay is P388 Leukemia (intraperitoneal) in CD2F1 (CDF1) mice
Inconclusive results and toxic doses are left out.
The compounds listed here are annotated with their T/C.

>  <compound>
CCOCCC(O)CC (stereo not given)

>  <test-target>
P388 leukemia ip, CD2F1 mice, survival T/C

>  <metric-name>
T/C

>  <observed-measurement>
104 % of control

$$$$
>  <compound>
OCC1OC(OC2(CO)OC(CO)C(O)C2O)C(O)C(O)C1O (stereo not given)

>  <test-target>
P388 leukemia ip, CD2F1 mice, survival T/C

>  <metric-name>
T/C

>  <observed-measurement>
98 % of control

$$$$
>  <compound>
CC(=O)CC(=O)CCC(=O)O

>  <test-target>
P388 leukemia ip, CD2F1 mice, survival T/C

>  <metric-name>
T/C

>  <observed-measurement>
94 % of control

$$$$
>  <compound>
CCOC(=O)CSc1ccccc1

>  <test-target>
P388 leukemia ip, CD2F1 mice, survival T/C

>  <metric-name>
T/C

>  <observed-measurement>
100 % of control

$$$$

Identify measured T/C corresponding to O=Cc1ccc(O)c(O)c1
107 % of control

----------
system: P388 leukemia ip, CD2F1 mice, survival T/C; assay: NCI In Vivo Anticancer Drug Screen. Data for tumor model P388 Leukemia (intraperitoneal) in CD2F1 (CDF1) mice; settings: endpoint: median survival time; dose: 240.0 mg/kg/injection; schedule: Q01DX005 (ip); vehicle: saline; higher = longer survival
Toxic doses and inconclusive results are not listed.
Overview of recorded T/C for various molecules

Example entries and their recorded answers appear below.
>  <molecule>
O=C(OCCO)c1ccccc1-c1c2cc3cc(Br)c(O)c(Br)c3oc-2c(Br)c(=O)c1Br

>  <T/C>
105 % of control

$$$$
>  <molecule>
Cc1csc(=S)n1O

>  <T/C>
101 % of control

$$$$
>  <molecule>
N=C1N=Nc2nc(C3(c4nc5n(c4O)C(=N)N=N5)Cc4ccccc4C3=O)c(O)n21 (stereo unspecified)

>  <T/C>
108 % of control

$$$$

Return T/C (reported value) for this molecule: CC(=O)Nc1ccc(Nc2cc(S(=O)(=O)O)c(N)c3c2C(=O)c2ccccc2C3=O)cc1
92 % of control

Fill in T/C for record COc1nc(N)c(NC(C)=O)c(=O)n1C
93 % of control

# return recorded T/C for entry O=C(O)C(Cc1c[nH]c2ccccc12)C(=O)NO (stereo unspecified)
94 % of control

----------
tested on: P388 leukemia ip, CD2F1 mice, survival T/C; assay: NCI In Vivo Anticancer Drug Screen. Data for tumor model P388 Leukemia (intraperitoneal) in CD2F1 (CDF1) mice; details: endpoint: median survival time; dose: 100.0 mg/kg/injection; schedule: Q01DX009 (ip); vehicle: other
Inconclusive results and toxic doses are left out. How the source made its calls: active means survival T/C of 150% or more; inactive means T/C below 125% in these data.
Field 'call' accepts true for active, false for inactive

These recorded examples may help you get a feel for the data.
>  <compound>
COc1cccc2c1C(=O)c1c(O)c3c(c(O)c1C2=O)C[C@@](O)(C(=O)CO)C[C@@H]3OC1CC(NC(C)=O)C(O)C(C)O1 (stereo partly specified)

>  <label-value>
true

$$$$
>  <compound>
COc1ccc(Br)c(C(=O)O)c1OS(=O)(=O)c1ccc(C)cc1

>  <label-value>
false

$$$$
>  <compound>
Nc1nc(N)c2c(n1)=NC(c1cccc3ccccc13)N=2 (stereo unspecified)

>  <label-value>
false

$$$$

Per the records of this test, what outcome belongs to O=c1n(-c2ccccc2)c(=O)n2n1CC(c1ccccc1)=N2 ?
false

Hi, sorry to bother you, what did the test record for O=C(c1cc2c(cc1Br)OCO2)N1CCc2ccccc21 ?
false

What classification did COc1cccc2c1C(=O)c1c(O)c3c(c(O)c1C2=O)CC(O)(C(C)=O)CC3O (stereo unspecified) end up with in this test?
false

----------
tested on: P388 leukemia ip, CD2F1 mice, survival T/C; assay: NCI In Vivo Anticancer Drug Screen. Data for tumor model P388 Leukemia (intraperitoneal) in CD2F1 (CDF1) mice; conditions: endpoint: median survival time; dose: 3.12 mg/kg/injection; schedule: Q01DX005 (ip); vehicle: Klucel (hydroxypropylcellulose) (HPC); higher = longer survival
Toxic doses and inconclusive results are not listed.
metric-name: T/C

Respond only with T/C recorded for CN1C2C=C(c3ccccc3)CC1CC2 (stereo unspecified)
103 % of control

Give the reported value of T/C for this record: O=C(CCl)c1ccc([N+](=O)[O-])cc1
100 % of control

Please report the measured T/C for CSc1nc(C)c(Br)c(N2CC2)n1
89 % of control

Provide measured T/C value, entry: Nc1ncnc2[nH]c(=S)[nH]c12
94 % of control

Please report T/C for the following compound: COc1cc(C2c3cc4c(cc3C(OC3CCCCO3)C3COC(=O)C23)OCO4)cc(OC)c1OC (stereo unspecified)
117 % of control

Please report T/C for the following compound: CN=C(c1ccc(NC(=O)c2ccc(C(=O)Nc3ccc(C(=NC)N(C)C4CCCCC4)cc3)cc2)cc1)N(C)C1CCCCC1
104 % of control

Attribution: PubChem BioAssay AID330
